This section presents compounds with their documented Papp values.
assay: PAMPA passive permeability; type: in vitro ADME; details: Pe;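 further: passive permeability across an artificial membrane in 96-well pre-coated PAMPA plates, which lack transporters and efflux systems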
Non-standard residues stand in square brackets, D forms with d. Residues, ends and D or L forms follow the SMILES beside them.
Give your result in ×10⁻⁶ cm/s as a bare value.

| COMPOUND | READOUT KIND | TEST VALUE |
| --- | --- | --- |
| C[C@@H](O)[C@@H]1NC(=O)[C@H](CCCCN)NC(=O)[C@@H](Cc2c[nH]c3ccccc23)NC(=O)[C@H](Cc2ccccc2)NC(=O)[C@@H]2CCCN2C(=O)[C@H](Cc2ccccc2)NC1=O [compound 13, cyclo(-D-Trp^1-Lys-Thr-Phe-Pro-Phe^6-)] (cyclo(PF[dW]KTF)) | Papp | 1.34 |

# evaluate next
Exercise: Look up Papp for this compound: C[C@@H](O)[C@@H]1NC(=O)[C@H](CCCCN)NC(=O)[C@@H](Cc2c[nH]c3ccccc23)NC(=S)[C@H](Cc2ccccc2)NC(=O)[C@@H]2CCCN2C(=O)[C@H](Cc2ccccc2)NC1=O [13f]
Key: 1.51
